Listed here: items and their measured IC50.
# Assay Target: TBK1 (Homo sapiens (Human), UniProt Q9UHD2)
# Sequence (Q9UHD2 whole entry): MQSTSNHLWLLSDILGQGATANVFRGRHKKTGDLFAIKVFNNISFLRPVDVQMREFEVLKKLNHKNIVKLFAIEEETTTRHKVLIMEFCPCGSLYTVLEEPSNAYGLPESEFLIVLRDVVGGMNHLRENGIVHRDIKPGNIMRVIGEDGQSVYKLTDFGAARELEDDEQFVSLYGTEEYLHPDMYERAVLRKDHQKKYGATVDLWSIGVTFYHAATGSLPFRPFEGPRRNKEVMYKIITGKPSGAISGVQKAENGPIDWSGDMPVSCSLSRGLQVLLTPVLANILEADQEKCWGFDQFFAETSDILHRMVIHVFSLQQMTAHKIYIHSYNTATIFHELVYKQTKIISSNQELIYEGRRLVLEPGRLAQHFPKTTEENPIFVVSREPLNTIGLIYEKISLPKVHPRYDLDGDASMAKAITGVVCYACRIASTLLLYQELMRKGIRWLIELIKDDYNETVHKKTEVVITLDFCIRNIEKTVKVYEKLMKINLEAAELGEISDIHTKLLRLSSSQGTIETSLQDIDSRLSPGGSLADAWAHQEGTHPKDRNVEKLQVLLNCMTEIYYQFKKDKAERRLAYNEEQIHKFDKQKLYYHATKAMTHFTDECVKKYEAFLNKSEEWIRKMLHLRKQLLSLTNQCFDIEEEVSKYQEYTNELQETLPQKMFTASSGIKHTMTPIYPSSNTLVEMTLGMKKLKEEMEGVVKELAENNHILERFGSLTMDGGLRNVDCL
# Assay Protocol: TBK1 TR-FRET enzymatic assay;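 further: phosphorylation of a biotinylated Ser/Thr peptide by purified full-length recombinant TBK1, read by TR-FRET after 240 min at 25 °C, IC50 is the geometric mean of at least four runs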
Reported Property: IC50 (nM)

Structure String	Assay Target	Unit Symbol	Numeric Readout
N#Cc1cc(-c2ncnc(Nc3ccc(N4CCN(C5COC5)CC4)cc3)n2)ccc1O[C@H]1CCN(C(=O)[C@@H]2C[C@H](O)CN2)C[C@H]1F	TBK1 (Homo sapiens (Human), UniProt Q9UHD2)	nM	18
CN1CCN(c2ccc(Nc3ncnc(-c4ccc(O[C@@H]5CCN(C(=O)CO)C5)c(C#N)c4)n3)cc2)CC1	TBK1 (Homo sapiens (Human), UniProt Q9UHD2)	nM	8
CCn1cc(Nc2ncnc(-c3ccc(O[C@H]4CCN(C(=O)CO)C[C@H]4F)c(C#N)c3)n2)nn1	TBK1 (Homo sapiens (Human), UniProt Q9UHD2)	nM	28
CCn1cc(Nc2ncnc(-c3ccc(O[C@H]4CCN(C(=O)CO)C[C@H]4F)c(C#N)c3)n2)c(C)n1	TBK1 (Homo sapiens (Human), UniProt Q9UHD2)	nM	4
N#Cc1cc(-c2ncnc(Nc3ccc(C(N)=O)cc3)n2)ccc1OC1CCOCC1	TBK1 (Homo sapiens (Human), UniProt Q9UHD2)	nM	2
CS(=O)(=O)OC1CN(c2ccc(-c3ncnc(Nc4ccc(N5CCN(C6COC6)CC5)cc4)n3)cc2C#N)C1	TBK1 (Homo sapiens (Human), UniProt Q9UHD2)	nM	23
N#Cc1cc(-c2ncnc(Nc3ccc(N4CCN(C5COC5)CC4)cc3)n2)ccc1O[C@H]1CCN(C(=O)c2nccnc2N)C[C@H]1F	TBK1 (Homo sapiens (Human), UniProt Q9UHD2)	nM	14
N#Cc1cc(-c2ncnc(Nc3ccc(N4CCN(C5COC5)CC4)cc3)n2)ccc1O[C@H]1CCN(C(=O)c2cc[nH]c(=O)c2)C[C@H]1F	TBK1 (Homo sapiens (Human), UniProt Q9UHD2)	nM	19
Cc1cc(Nc2ncnc(-c3ccc(O[C@H]4CCN(C(=O)[C@H](C)O)C[C@H]4F)c(C#N)c3)n2)ccc1C1CCN(C)CC1	TBK1 (Homo sapiens (Human), UniProt Q9UHD2)	nM	3
COc1ccc(-c2ncnc(Nc3ccc(N4CCN(C5COC5)CC4)cc3)n2)cc1C#N	TBK1 (Homo sapiens (Human), UniProt Q9UHD2)	nM	42
N#Cc1cc(-c2ncnc(Nc3ccc(C(=O)C(F)(F)F)cc3)n2)ccc1OC1CCOCC1	TBK1 (Homo sapiens (Human), UniProt Q9UHD2)	nM	2
C[C@H](O)C(=O)N1CC[C@H](Oc2ccc(-c3ncnc(Nc4scnc4CO)n3)cc2C#N)[C@H](F)C1	TBK1 (Homo sapiens (Human), UniProt Q9UHD2)	nM	36
CC(C)[C@@H](O)C(=O)N1CC[C@H](Oc2ccc(-c3ncnc(Nc4ccc(N5CCN(C6COC6)CC5)cc4)n3)cc2C#N)[C@H](F)C1	TBK1 (Homo sapiens (Human), UniProt Q9UHD2)	nM	146
N#Cc1cc(-c2ncnc(Nc3ccc(C(N)=O)cc3)n2)ccc1O[C@@H]1CCN(C(=O)CO)C1	TBK1 (Homo sapiens (Human), UniProt Q9UHD2)	nM	13
